The reader will find pIC50 measurements below, all made with Somatostatin receptor type 1 (Homo sapiens).
Sequence (P30872 whole entry): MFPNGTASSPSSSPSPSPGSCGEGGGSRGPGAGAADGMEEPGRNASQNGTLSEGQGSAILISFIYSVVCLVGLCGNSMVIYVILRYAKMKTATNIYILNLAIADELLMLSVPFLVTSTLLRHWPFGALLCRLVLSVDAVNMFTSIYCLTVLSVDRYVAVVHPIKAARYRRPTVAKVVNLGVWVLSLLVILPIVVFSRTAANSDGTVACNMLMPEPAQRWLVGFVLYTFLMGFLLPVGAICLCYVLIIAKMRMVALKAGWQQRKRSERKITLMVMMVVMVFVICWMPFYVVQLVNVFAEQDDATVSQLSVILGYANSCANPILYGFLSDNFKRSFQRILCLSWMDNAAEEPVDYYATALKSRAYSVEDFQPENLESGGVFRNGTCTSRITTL
The scale used: pIC50 is minus the common logarithm of the concentration in molar units.

INSERT INTO measurements (chemical_string, numeric_value) VALUES
  ('NCCCC[C@@H](C(=O)NCc1ccccc1)N1Cc2[nH]c3ccccc3c2C[C@@H](NC(=O)Cc2ccccc2)C1=O', 6.63);

Attention now turns to another entry.
Entry under review: NCCCC[C@@H](C(=O)NCc1ccccc1)N1Cc2[nH]c3ccccc3c2C[C@@H](NC(=O)CC(c2ccccc2)c2ccccc2)C1=O . Reported pIC50?
7.05

----------
The reader will find IC50 measurements below, all made with Somatostatin receptor type 4 (Homo sapiens, UniProt P31391).
Sequence (P31391 whole entry): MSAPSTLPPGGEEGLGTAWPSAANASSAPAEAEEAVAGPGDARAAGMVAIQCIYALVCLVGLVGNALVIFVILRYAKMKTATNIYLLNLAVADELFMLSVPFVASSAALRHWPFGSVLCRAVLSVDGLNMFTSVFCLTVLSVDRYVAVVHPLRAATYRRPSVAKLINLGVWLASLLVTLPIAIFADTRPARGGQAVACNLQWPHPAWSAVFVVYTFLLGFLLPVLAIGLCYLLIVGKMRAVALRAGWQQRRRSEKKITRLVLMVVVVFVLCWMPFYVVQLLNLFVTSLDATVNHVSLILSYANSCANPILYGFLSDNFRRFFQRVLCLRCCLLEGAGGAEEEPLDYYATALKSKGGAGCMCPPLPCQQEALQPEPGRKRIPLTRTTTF
# value in nM; strip the unit string

INSERT INTO results (chemical_string, numeric_value) VALUES
  ('NCCCCCN1Cc2[nH]c3ccccc3c2C[C@@H](NC(=O)CC(c2ccccc2)c2ccccc2)C1=O', 129);

So what IC50 did NCCCC[C@@H](C(=O)NCc1ccccc1)N1Cc2[nH]c3ccccc3c2C[C@@H](NC(=O)CC(c2ccccc2)c2ccccc2)C1=O get with Somatostatin receptor type 4 (Homo sapiens, UniProt P31391)?
73
